# Tested on: Staphylococcus aureus
# Assay: in vivo therapeutic activity on mice experimentally infected with Staphylococcus aureus
# Set-up: species or system male Swiss Cobs albino mice
# Condition Description: Staphylococcus aureus, sc, 168 h, Table 2, 2 LD50/mouse i.p., subcutaneous treatment 4 h after infection, 7 days, read-out: ED50 (dose effective in curing 50% of the infected mice)
Quantity Name: ED50 (mg/kg)
Report the figure in mg/kg without appending any unit label.

Sample answers from the record:
> print(dat)
                                   compound  quantity.name  readout.unit  reading
1  NC(=O)c1cncc(SCC2=C(C(=O)O)N3C(=O)C(NC(=O)Cc4cccs4)C3SC2)n1 (centres unmarked)           ED50         mg/kg       20
2  COc1cncc(SCC2=C(C(=O)O)N3C(=O)C(NC(=O)Cc4cccs4)C3SC2)n1 (centres unmarked)           ED50         mg/kg       15
3  O=C(Cc1ccccc1)NC1C(=O)N2C(C(=O)O)=C(CSc3cncc(Cl)n3)CSC12 (centres unmarked)           ED50         mg/kg       35
4  CC(=O)OCC1=C(C(=O)O)N2C(=O)C(NC(=O)CSc3cnccn3)C2SC1 (centres unmarked)           ED50         mg/kg       40
5  CC(=O)OCC1=C(C(=O)O)N2C(=O)[C@@H](NC(=O)Cc3cccs3)[C@H]2SC1 [cephalothin, reference compound]           ED50         mg/kg       30

Q: Specify reported ED50 for the compound shown: O=C(CSc1cnccn1)NC1C(=O)N2C(C(=O)O)=C(CSc3cncc(Cl)n3)CSC12 (centres unmarked)
A: 40

Q: Quickly give me recorded ED50 for Cc1nnc(SCC2=C(C(=O)O)N3C(=O)[C@@H](NC(=O)Cn4cnnn4)[C@H]3SC2)s1 [cephazolin, reference compound]
A: 30

Q: Give recorded ED50. O=C(Cc1cccs1)NC1C(=O)N2C(C(=O)O)=C(CSc3cnccn3)CSC12 (centres unmarked)
A: 20
